# system under test: hCMV gB (expressed in HEK293T cells) (human cytomegalovirus, UniProt P06473 32-906)
# Sequence (P06473 32-906 limits assumed): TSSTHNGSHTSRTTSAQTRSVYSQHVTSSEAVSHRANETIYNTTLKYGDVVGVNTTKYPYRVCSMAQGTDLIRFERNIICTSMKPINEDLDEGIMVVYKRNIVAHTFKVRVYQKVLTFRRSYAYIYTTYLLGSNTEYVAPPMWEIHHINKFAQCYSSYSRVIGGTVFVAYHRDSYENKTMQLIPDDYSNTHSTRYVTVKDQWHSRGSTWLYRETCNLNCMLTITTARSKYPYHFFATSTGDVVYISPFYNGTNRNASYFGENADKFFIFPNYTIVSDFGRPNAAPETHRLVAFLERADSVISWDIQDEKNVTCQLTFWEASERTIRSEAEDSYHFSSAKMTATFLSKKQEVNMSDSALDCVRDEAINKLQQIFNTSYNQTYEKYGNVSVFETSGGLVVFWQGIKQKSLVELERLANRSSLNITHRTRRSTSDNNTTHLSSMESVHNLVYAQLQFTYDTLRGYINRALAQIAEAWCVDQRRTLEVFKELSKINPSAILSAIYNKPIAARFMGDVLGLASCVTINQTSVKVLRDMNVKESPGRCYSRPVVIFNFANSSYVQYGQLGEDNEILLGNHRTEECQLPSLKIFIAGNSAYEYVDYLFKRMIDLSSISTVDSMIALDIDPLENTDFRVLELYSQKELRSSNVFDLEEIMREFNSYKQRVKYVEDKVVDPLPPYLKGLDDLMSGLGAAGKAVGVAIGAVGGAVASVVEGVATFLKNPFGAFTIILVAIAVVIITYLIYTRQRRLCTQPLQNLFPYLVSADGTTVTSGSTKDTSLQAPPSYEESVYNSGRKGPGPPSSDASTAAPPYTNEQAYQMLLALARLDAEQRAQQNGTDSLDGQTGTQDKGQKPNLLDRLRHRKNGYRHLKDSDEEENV
# experimental details: cell-based or functional assay

binder	50% Neutralization BM-MSC, µg/mL
10C6 (antibody, V domains shown, human IgG; also called 10C6-biotin) VH: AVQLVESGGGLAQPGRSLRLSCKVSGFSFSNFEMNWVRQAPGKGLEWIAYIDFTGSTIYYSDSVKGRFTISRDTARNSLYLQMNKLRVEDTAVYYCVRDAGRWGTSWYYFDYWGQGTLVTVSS VL: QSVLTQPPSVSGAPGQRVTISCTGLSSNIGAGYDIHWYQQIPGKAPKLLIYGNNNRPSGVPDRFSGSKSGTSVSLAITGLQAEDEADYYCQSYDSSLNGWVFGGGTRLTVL	0.3
